Test system: 266 human PDZ domains (PDZome)
protocol: Holdup assay (chromatographic retention, PDZome-binding profile, BI)
Set-up: key: binding intensity: 0.00 = no binding, 1.00 = maximal binding
reportedConditions: PDZ domain SHROOM4-1
measuredQuantity: BI

CC[C@H](C)[C@H](NC(=O)[C@H](CCC(N)=O)NC(=O)[C@@H](NC(=O)[C@H](Cc1c[nH]cn1)NC(=O)[C@H](CCC(N)=O)NC(=O)[C@H](CC(=O)O)NC(=O)[C@H](CCC(=O)O)NC(=O)[C@H](CC(=O)O)NC(=O)CCC(=O)NCCCOCCOCCOCCCNC(=O)CCCC[C@@H]1SC[C@@H]2NC(=O)N[C@@H]21)[C@@H](C)O)C(=O)N[C@H](C(=O)N[C@@H](CCCCN)C(=O)N[C@H](C(=O)O)C(C)C)[C@@H](C)O [PTEN_11] | -0.001

* * *

target: LRRC7-1 (Homo sapiens)
Sequence (Q96NW7 with tags, fused parts or gaps): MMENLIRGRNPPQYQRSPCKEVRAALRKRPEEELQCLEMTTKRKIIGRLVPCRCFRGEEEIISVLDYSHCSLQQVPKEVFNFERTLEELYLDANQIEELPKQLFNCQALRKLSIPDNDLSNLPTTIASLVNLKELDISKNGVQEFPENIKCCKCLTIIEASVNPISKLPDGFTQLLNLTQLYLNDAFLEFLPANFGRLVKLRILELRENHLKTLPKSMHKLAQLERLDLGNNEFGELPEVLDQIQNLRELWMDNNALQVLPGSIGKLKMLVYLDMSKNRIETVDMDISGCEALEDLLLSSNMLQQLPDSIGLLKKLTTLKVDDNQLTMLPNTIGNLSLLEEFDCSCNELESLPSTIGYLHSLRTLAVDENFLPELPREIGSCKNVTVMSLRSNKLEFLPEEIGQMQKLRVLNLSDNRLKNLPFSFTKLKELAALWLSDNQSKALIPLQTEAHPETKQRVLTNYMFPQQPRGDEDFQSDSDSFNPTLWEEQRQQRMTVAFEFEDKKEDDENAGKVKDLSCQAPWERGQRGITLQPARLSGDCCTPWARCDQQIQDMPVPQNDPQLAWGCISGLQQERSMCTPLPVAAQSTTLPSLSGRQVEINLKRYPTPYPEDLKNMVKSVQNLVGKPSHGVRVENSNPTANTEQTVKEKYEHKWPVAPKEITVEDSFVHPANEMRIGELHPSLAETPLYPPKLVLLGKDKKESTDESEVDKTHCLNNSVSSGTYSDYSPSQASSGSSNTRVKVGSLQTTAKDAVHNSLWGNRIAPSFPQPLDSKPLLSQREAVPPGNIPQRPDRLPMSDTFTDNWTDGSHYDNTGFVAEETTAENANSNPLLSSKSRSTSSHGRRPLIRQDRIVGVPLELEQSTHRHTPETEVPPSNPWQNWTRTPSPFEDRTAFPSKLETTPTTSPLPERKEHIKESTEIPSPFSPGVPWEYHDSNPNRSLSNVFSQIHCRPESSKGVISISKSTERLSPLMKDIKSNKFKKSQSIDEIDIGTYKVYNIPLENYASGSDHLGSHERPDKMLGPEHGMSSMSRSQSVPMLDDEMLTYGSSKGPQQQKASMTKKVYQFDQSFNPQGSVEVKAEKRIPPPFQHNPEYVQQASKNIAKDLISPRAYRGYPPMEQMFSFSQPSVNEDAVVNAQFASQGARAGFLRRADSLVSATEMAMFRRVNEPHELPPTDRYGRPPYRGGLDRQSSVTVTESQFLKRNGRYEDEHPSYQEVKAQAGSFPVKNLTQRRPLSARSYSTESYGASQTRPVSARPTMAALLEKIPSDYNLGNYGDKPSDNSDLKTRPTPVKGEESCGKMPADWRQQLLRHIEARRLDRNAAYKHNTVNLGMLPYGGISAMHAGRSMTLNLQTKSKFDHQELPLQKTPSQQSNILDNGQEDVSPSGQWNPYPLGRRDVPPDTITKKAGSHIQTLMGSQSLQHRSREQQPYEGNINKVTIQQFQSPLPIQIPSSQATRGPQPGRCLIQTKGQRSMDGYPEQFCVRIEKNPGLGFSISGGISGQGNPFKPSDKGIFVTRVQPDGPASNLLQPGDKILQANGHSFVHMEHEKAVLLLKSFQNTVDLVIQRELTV
protocol: Holdup assay, LRRC7-1
Type: binding
*1 amine or outer side, *2 acyl side, *3 side chain or, on linkers, in order; H or OH if unused. Where a SMILES comes first, the peptide text is derived from it. The star is where a group is joined. X1 = O=C(CCCC[C@@H]1SC[C@@H]2NC(=O)N[C@@H]21)NCCCOCCOCCOCCCN*; Suc = O=C(CCC(=O)[*:2])[*:1]
measuredQuantity: BI

CC[C@H](C)[C@H](NC(=O)[C@H](CCC(N)=O)NC(=O)[C@@H](NC(=O)[C@H](Cc1c[nH]cn1)NC(=O)[C@H](CCC(N)=O)NC(=O)[C@H](CC(=O)O)NC(=O)[C@H](CCC(=O)O)NC(=O)[C@H](CC(=O)O)NC(=O)CCC(=O)NCCCOCCOCCOCCCNC(=O)CCCC[C@@H]1SC[C@@H]2NC(=O)N[C@@H]21)[C@@H](C)O)C(=O)N[C@H](C(=O)N[C@@H](CCCNC(=N)N)C(=O)N[C@H](C(=O)O)C(C)C)[C@@H](C)O [PTEN_KR] ({X1-Suc}-DEDQHTQITRV-OH) | 0.14
CC[C@H](C)[C@H](NC(=O)[C@H](CCC(N)=O)NC(=O)[C@@H](NC(=O)[C@H](Cc1c[nH]cn1)NC(=O)[C@H](CCC(N)=O)NC(=O)[C@H](CC(=O)O)NC(=O)[C@H](CCC(=O)O)NC(=O)[C@H](CC(=O)O)NC(=O)[C@H](Cc1ccccc1)NC(=O)[C@@H]1CCCN1C(=O)CCC(=O)NCCCOCCOCCOCCCNC(=O)CCCC[C@@H]1SC[C@@H]2NC(=O)N[C@@H]21)[C@@H](C)O)C(=O)N[C@H](C(=O)N[C@@H](CCCCN)C(=O)N[C@H](C(=O)O)C(C)C)[C@@H](C)O [PTEN_13] ({X1-Suc}-PFDEDQHTQITKV-OH) | 0.042
CC[C@H](C)[C@H](NC(=O)[C@H](CCC(N)=O)NC(=O)[C@@H](NC(=O)[C@H](Cc1c[nH]cn1)NC(=O)[C@H](CCC(N)=O)NC(=O)[C@H](CC(=O)O)NC(=O)[C@H](CCC(=O)O)NC(=O)[C@H](CC(=O)O)NC(=O)CCC(=O)NCCCOCCOCCOCCCNC(=O)CCCC[C@@H]1SC[C@@H]2NC(=O)N[C@@H]21)[C@@H](C)O)C(=O)N[C@H](C(=O)N[C@@H](CCCCNC(C)=O)C(=O)N[C@H](C(=O)O)C(C)C)[C@@H](C)O | -0.028
CC[C@H](C)[C@H](NC(=O)[C@H](CCC(N)=O)NC(=O)[C@@H](NC(=O)[C@H](Cc1c[nH]cn1)NC(=O)[C@H](CCC(N)=O)NC(=O)[C@H](CC(=O)O)NC(=O)[C@H](CCC(=O)O)NC(=O)[C@H](CC(=O)O)NC(=O)CCC(=O)NCCCOCCOCCOCCCNC(=O)CCCC[C@@H]1SC[C@@H]2NC(=O)N[C@@H]21)[C@@H](C)O)C(=O)N[C@H](C(=O)N[C@@H](CCCCN)C(=O)N[C@H](C(=O)O)C(C)C)[C@@H](C)O | 0.078
